System: CYP enzymes of liver microsomes that oxidise (demethylate) AAI to AAIa
Assay: Effect of CYP inhibitors on AAI oxidation to AAIa by rat liver microsomes
Format: in vitro ADME
Details: male, Wistar, pH 7.4, probe AAI (10 μM), inhibitor 10 μM equimolar to AAI (10 μM), 0.1 nmol CYP, mean ± SD, n = 3, NI = no inhibition, read-out: AAIa Formation (% of Control without Inhibitor) Rat Microsomes
Documented activity at 20 min, 10 μM across a set of compounds
The reply should be a number in %, with the unit left off.

The cases that follow already have their activity at 20 min, 10 μM on record.
{"compound": "Nc1ccc(S(=O)(=O)Nc2ccnn2-c2ccccc2)cc1 [Sulfaphenazole, sulfaphenazole]", "readoutUnits": "%", "activity at 20 min, 10 μM": 68}
{"compound": "CCN(CC)C(=S)S [DDTC, diethyldithiocarbamate]", "readoutUnits": "%", "activity at 20 min, 10 μM": 52}
{"compound": "Cc1nc2c([nH]1)c(=O)n(C)c(=O)n2Cc1ccco1 [Furafylline, furafylline]", "readoutUnits": "%", "activity at 20 min, 10 μM": 84}

Here's the next entry for you.
Consider O=c1cc(-c2ccccc2)oc2c1ccc1ccccc12 [α-Napththoflavone, α-Naphthoflavone] . Its measured activity at 20 min, 10 μM is 85
